Origin of measurements: the kinase profiling compilation of Christmann-Franck et al. (2016)

Assignment: determine reported residual activity for the given compounds.
# Tgt: CSNK2A2 (human) (UniProt P19784)
# Sequence (P19784 whole entry, looked up): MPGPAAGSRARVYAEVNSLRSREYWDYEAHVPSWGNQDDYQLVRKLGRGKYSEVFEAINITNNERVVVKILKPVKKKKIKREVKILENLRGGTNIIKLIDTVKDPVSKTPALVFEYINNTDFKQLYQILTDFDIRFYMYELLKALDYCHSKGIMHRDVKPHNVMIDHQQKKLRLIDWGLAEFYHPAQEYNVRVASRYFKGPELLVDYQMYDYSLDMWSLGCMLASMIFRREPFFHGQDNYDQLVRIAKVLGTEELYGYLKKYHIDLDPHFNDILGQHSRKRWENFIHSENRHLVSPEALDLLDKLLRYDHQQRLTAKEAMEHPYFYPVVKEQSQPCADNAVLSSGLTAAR
# Test Protocol: radiometric filter-binding kinase assay, Kinase HotSpot
# Applied Conditions: compound 0.5 µM; ATP 10 µM
Numbers only, in %.

Here is how some compounds turned out for residual activity.
INSERT INTO assay_data (compound_string, quantity_name, reported_measurement) VALUES
  ('COc1ccc2c(c1)c(C1=C(c3c[nH]c4ccccc34)C(=O)NC1=O)cn2CCCN(C)C', 'residual activity', 99.3),
  ('N#C/C(=C\c1ccc(O)c(O)c1)C(=O)NCc1ccccc1', 'residual activity', 81.9);

Answer for every listed entry: what is its residual activity? The entries follow.
1. CCCCc1c(-c2ccc(OC)cc2)[nH]c2nccnc12
2. CN(C)S(=O)(=O)c1ccc2c(c1)/C(=C/c1cc3c([nH]1)CCCC3)C(=O)N2
3. CN(C)c1ccc(/C=C2\C(=O)Nc3ccccc32)cc1

[94.1, 92.1, 98.6]
